Just for reference, the supplement of paper PMC11208160 is where these values come from.

Assay: recombinant barcode read abundance after kanamycin selection (control-corrected) (log10(CPM+1)); higher = more efficient recombination; sequences stand for … in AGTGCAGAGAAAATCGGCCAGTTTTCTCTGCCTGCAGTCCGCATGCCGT…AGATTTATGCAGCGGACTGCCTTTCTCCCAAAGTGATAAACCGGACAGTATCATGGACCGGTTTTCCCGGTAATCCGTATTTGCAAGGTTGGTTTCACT; site = the 11-nt target;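 also: IS621 recombinase and bridge RNA in Escherichia coli cells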
The recorded recombinant barcode read abundance (log10) of each item maps onto one of these classes: low end: < 0.04; middle: ≥ 0.04 and < 0.5; high end: ≥ 0.5

Worked cases, answers included:
| MONOMER SEQUENCE | ASSIGNED LABEL |
| --- | --- |
| TACATTCCTTGGGTTCTAACCTGTTGCCT (site AACATTCCTAG) | low end |
| GTGGAAGCTTGGGTTCTAACCTGTTGCCA (site GTGAAAGCTTG) | middle |
| CTCTGTCCTTGGGTTCTAACCTGTTGCCA (site CTCTGTCCTTA) | middle |

stdin: Class (by measured recombinant barcode read abundance (log10)) for AACAGTACTTGGGTTCTAACCTGTTGCCT (site AACAGTACTAG)
stdout: high end

stdin: Band of TCGAAGGCTTGGGTTCTAACCTGTTGCCT (site TCCAAGGCTAG) ?
stdout: middle
